Target: JAK3 enzyme (Homo sapiens, UniProt P52333)
Sequence (P52333 whole entry, species assumed): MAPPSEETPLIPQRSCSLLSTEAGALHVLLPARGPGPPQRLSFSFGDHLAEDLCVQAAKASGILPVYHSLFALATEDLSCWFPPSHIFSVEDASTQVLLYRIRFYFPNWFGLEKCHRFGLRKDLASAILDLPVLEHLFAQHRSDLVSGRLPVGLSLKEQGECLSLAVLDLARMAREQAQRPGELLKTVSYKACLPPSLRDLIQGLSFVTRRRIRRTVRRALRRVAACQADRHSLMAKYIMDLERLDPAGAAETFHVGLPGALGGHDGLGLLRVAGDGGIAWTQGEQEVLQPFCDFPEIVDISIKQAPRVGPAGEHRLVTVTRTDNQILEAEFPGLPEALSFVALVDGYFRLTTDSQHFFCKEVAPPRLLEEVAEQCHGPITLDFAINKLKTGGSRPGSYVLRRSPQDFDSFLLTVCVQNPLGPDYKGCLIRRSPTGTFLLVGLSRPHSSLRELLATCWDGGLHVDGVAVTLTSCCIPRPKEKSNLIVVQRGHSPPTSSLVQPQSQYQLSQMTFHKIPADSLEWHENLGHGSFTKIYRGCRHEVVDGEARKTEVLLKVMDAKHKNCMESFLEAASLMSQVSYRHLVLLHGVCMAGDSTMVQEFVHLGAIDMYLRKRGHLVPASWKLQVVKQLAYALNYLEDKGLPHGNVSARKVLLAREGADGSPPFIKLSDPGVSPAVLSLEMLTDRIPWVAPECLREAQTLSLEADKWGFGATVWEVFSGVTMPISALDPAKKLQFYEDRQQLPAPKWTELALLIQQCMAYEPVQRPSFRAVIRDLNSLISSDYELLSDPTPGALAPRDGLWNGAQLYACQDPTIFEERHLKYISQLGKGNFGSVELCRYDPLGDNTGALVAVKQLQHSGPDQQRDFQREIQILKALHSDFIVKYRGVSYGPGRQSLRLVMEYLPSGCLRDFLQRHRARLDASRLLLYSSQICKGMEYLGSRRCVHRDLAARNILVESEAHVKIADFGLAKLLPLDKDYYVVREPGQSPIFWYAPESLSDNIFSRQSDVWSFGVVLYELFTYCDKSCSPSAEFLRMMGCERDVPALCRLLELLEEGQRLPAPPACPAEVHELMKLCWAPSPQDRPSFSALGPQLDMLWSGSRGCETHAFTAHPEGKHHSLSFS
Assay: JAK Caliper Enzyme Assay at 4 μM ATP
Format: biochemical
# note: boundary value 0.6 nM maps to No; IC50 below it maps to Yes

Example results:
compound | assigned_category
C=CC(=O)N1CCC(Nc2cnc3[nH]cc(C(=O)NCc4scnc4C(F)(F)F)c3n2)CC1 | Yes
C=CC(=O)N1CCC(Nc2cnc3[nH]cc(C(=O)NCc4ccc(OC)c(F)c4)c3n2)CC1 | Yes
C=CC(=O)N1CCC(Oc2cnc3[nH]cc(C(=O)NC[C@@]4(O)CCCC[C@H]4F)c3n2)CC1 | No
C=CC(=O)N1C[C@@H](Nc2cnc3[nH]cc(C(=O)NCC)c3n2)CC[C@H]1C (racemic) [Example 74] | No

QUERY: Please indicate whether the reported IC50 of C=CC(=O)N1CC[C@H](Nc2cnc3[nH]cc(C(=O)NCCC(F)(F)F)c3n2)C1 is strictly below 0.6 nM.
RESULT: Yes

QUERY: Please indicate whether the reported IC50 of C=CC(=O)N1CC[C@H](Nc2cnc3[nH]cc(C(=O)N[C@H](C)COC)c3n2)C[C@@H]1C (stereo in doubt) [Example 354] is strictly below 0.6 nM.
RESULT: No

QUERY: Please indicate whether the reported IC50 of C=CC(=O)N1CCN(c2cnc3[nH]cc(C(=O)N[C@H](C)COC)c3n2)CC1(C)COC (stereo partly shown) is strictly below 0.6 nM.
RESULT: No

QUERY: Please indicate whether the reported IC50 of C=CC(=O)N1CCC(Nc2cnc3[nH]cc(C(=O)NCc4ccc(OC(F)F)cc4)c3n2)CC1 is strictly below 0.6 nM.
RESULT: Yes

QUERY: Please indicate whether the reported IC50 of C=CC(=O)N1CCN(c2cnc3[nH]cc(C(=O)NCC)c3n2)CC1(C)C is strictly below 0.6 nM.
RESULT: No

QUERY: Please indicate whether the reported IC50 of C=CC(=O)N1CC[C@H](Oc2cnc3[nH]cc(C(=O)N[C@H](C)COC)c3n2)C1 is strictly below 0.6 nM.
RESULT: No
